system: Danio rerio larvae (5 dpf); assay: difference in habituation to acoustic stimuli vs DMSO (percentage points); higher = more habituation than DMSO; conditions: 10 µM; exposure time 6 h
Structures can show the parent of a compound that is named as a salt.
recorded endpoint: difference in habituation to acoustic stimuli

Recorded difference in habituation to acoustic stimuli for CC(=O)O[C@]1(C(C)=O)CC[C@H]2[C@@H]3CCC4=CC(=O)CCC4=C3[C@@H](c3ccc(N(C)C)cc3)C[C@@]21C [Ulipristal Acetate] on Danio rerio larvae (5 dpf) was 5.46

Here COc1cc2c(cc1Cc1cccc(Cl)c1F)c(=O)c(C(=O)O)cn2[C@H](CO)C(C)C [Elvitegravir] was tested on Danio rerio larvae (5 dpf), and its difference in habituation to acoustic stimuli came to 0.943

# lookup: O=C(NC[C@H]1CN(c2ccc(N3CCOCC3=O)cc2)C(=O)O1)c1ccc(Cl)s1 [Rivaroxaban] on Danio rerio larvae (5 dpf), difference in habituation to acoustic stimuli = -4.56

The observed difference in habituation to acoustic stimuli for CC=CC1=C(C(=O)O)N2C(=O)[C@@H](NC(=O)[C@H](N)c3ccc(O)cc3)[C@H]2SC1 [Cefprozil] when tested with Danio rerio larvae (5 dpf) stands at 4.8

Summary line: CC(C)(C)NCC(O)c1ccc(O)c(CO)c1 (configuration not stated) [Salbutamol] , Danio rerio larvae (5 dpf), reported difference in habituation to acoustic stimuli = -4.78

So the reported difference in habituation to acoustic stimuli for CC[C@@]1(O)C(=O)OCc2c1cc1n(c2=O)Cc2cc3c(CN(C)C)c(O)ccc3nc2-1 [Topotecan (hydrochloride)] , on Danio rerio larvae (5 dpf), turned out to be -4.39

Cc1ccc(/C(=C\CN2CCCC2)c2cccc(/C=C/C(=O)O)n2)cc1 [Acrivastine] tested on Danio rerio larvae (5 dpf) gave difference in habituation to acoustic stimuli: 0.73

# value of difference in habituation to acoustic stimuli, Danio rerio larvae (5 dpf), item CC(C)(C(=O)O)c1ccc(C(O)CCCN2CCC(C(O)(c3ccccc3)c3ccccc3)CC2)cc1 (configuration not stated) [Fexofenadine (hydrochloride)] = 0.612

Field difference in habituation to acoustic stimuli (Danio rerio larvae (5 dpf)), entry NNCCc1ccccc1 [Phenelzine (sulfate)] : 5.81

Cc1cc(NS(=O)(=O)c2ccc(N)cc2)no1 [Sulfamethoxazole] on Danio rerio larvae (5 dpf) gives difference in habituation to acoustic stimuli = 3.04

Reported Danio rerio larvae (5 dpf) difference in habituation to acoustic stimuli for item CCN1C(=O)NC(c2ccccc2)C1=O (configuration not stated) [Ethotoin] was 0.909

Test item COC(=O)C1=C(C)NC(C)=C(C(=O)OC(C)C)C1c1cccc2nonc12 (configuration not stated) [Isradipine] ; Danio rerio larvae (5 dpf); reported difference in habituation to acoustic stimuli was -7.82

Item: CCOC(=O)[C@H](CCc1ccccc1)N[C@@H](C)C(=O)N1[C@H](C(=O)O)C[C@H]2CCCC[C@@H]21 [Trandolapril] | System: Danio rerio larvae (5 dpf) | difference in habituation to acoustic stimuli: -0.88

Given the compound N=C(N)NC(=O)c1nc(Cl)c(N)nc1N [Amiloride (hydrochloride) (hydrate)] and test system Danio rerio larvae (5 dpf), the measured difference in habituation to acoustic stimuli is 2.2

Field difference in habituation to acoustic stimuli (system: Danio rerio larvae (5 dpf)) for entry CNCC[C@@H](Oc1ccccc1C)c1ccccc1 [Atomoxetine (hydrochloride)] = -3.36

Item CNCCCC12CCC(c3ccccc31)c1ccccc12 [Maprotiline (hydrochloride)] was tested on Danio rerio larvae (5 dpf); the reported difference in habituation to acoustic stimuli is 0.965

The compound CCN[C@H]1CN(CCCOC)S(=O)(=O)c2sc(S(N)(=O)=O)cc21 [Brinzolamide] on Danio rerio larvae (5 dpf): difference in habituation to acoustic stimuli was -5.35
